Sequence of the target: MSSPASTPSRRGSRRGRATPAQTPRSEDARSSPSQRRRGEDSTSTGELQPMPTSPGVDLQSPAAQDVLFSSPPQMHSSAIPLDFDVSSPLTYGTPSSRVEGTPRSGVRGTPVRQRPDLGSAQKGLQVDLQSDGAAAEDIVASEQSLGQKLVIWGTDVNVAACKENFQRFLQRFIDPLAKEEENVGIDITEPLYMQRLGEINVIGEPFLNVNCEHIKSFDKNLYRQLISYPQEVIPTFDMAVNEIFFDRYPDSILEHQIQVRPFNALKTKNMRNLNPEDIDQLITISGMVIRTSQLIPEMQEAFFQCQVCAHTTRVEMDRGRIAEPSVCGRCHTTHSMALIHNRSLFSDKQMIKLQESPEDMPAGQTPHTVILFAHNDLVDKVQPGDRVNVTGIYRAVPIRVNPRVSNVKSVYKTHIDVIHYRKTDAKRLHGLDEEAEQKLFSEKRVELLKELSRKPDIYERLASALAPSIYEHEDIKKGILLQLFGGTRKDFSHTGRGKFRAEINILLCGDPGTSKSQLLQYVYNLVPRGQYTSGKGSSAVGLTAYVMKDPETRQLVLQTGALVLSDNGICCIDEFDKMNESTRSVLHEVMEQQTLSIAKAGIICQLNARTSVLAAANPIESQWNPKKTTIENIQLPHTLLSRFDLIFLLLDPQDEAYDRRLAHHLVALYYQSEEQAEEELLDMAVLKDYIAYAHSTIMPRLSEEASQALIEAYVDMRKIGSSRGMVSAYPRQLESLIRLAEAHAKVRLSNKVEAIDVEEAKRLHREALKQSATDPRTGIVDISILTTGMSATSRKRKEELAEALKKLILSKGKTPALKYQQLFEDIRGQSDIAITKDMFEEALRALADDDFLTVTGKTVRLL
Active and inactive are the calls of the source.
Value kind: Kd

Solved cases (5 shown):
- Molecule: "Cc1ccc(S(=O)(=O)Nc2nc3ccccc3nc2Nc2ccc3nsnc3c2)cc1"
  Kd: "> 30 µM (inactive)"
- Molecule: "COc1cc2nccc(Oc3ccc(NC(=O)NC4CC4)c(Cl)c3)c2cc1C(N)=O"
  Kd: "> 30 µM (inactive)"
- Molecule: "Cc1nc(N)sc1-c1ccnc(Nc2ccc(N3CCOCC3)cc2)n1"
  Kd: "> 30 µM (inactive)"
- Molecule: "Cc1cc([C@@H](C)Nc2ccccc2C(=O)O)c2nc(N3CCOCC3)cc(=O)n2c1"
  Kd: "> 30 µM (inactive)"
- Molecule: "O=C(c1ccc(F)c(F)c1Nc1ccc(I)cc1F)N1CC(O)([C@@H]2CCCCN2)C1"
  Kd: "> 30 µM (inactive)"

Now, please, on to the next molecule.
## Input What does the data say about its Kd? Entry: CN1CC[C@@H](c2c(O)cc(O)c3c(=O)cc(-c4ccccc4Cl)oc23)[C@@H]1CO
## Output > 30 µM (inactive)
